assay.explanation: Prodrug stability assay in bio-relevant media (FaSSIF with Pancreatin, simulated gastrointestinal tract conditions)
Assay type: in vitro ADME
test.parameters: % parent prodrug remaining at 5 h vs 0 h, 37° C., 0.5 mg/mL Pancreatin in FaSSIF, HPLC area ratio
test.readout: GI Tract stability (%)
Report only the number, with the unit % understood.

Inquiry: Name the reported GI Tract stability value associated with the compound CCCCCCOC(=O)C(C)(C)NP(=O)(CO[C@H](C)Cn1cnc2c(N)ncnc21)O[C@@H](C)C(=O)OC(C)C (single isomer, unassigned) [Example 7B]
Reply text: 76.64

Inquiry: Similarly, CC(C)OC(=O)COP(=O)(CO[C@H](C)Cn1cnc2c(N)ncnc21)NC1(C(=O)OC(C)C)CCC1 (stereo partly drawn) ?
Reply text: 100.50

Inquiry: Similarly, CCCCCCOC(=O)C(C)(C)NP(=O)(CO[C@H](C)Cn1cnc2c(N)ncnc21)O[C@@H](Cc1ccccc1)C(=O)OC(C)C (stereo partly drawn) ?
Reply text: 26.96

Inquiry: Similarly, CCCCCCOC(=O)C(C)(C)NP(=O)(CO[C@H](C)Cn1cnc2c(N)ncnc21)OCC(=O)OC(C)C (single isomer, unassigned) [Example 6A] ?
Reply text: 95.97

Inquiry: Similarly, CCCOC(=O)C(C)(C)NP(=O)(CO[C@H](C)Cn1cnc2c(N)ncnc21)O[C@H](C)C(=O)OC(C)C (stereo partly drawn) ?
Reply text: 4.28

Inquiry: Similarly, CCCCOC(=O)C(C)(C)NP(=O)(CO[C@H](C)Cn1cnc2c(N)ncnc21)O[C@H](C)C(=O)OC(C)C (stereo partly drawn) ?
Reply text: 9.01

Inquiry: Similarly, CC(C)OC(=O)[C@H](C)OP(=O)(CO[C@H](C)Cn1cnc2c(N)ncnc21)NC(C)(C)C(=O)OC1CCCC1 (single isomer, unassigned) [Example 18A] ?
Reply text: 76.31

Inquiry: Similarly, CC(C)OC(=O)[C@H](C)OP(=O)(CO[C@H](C)Cn1cnc2c(N)ncnc21)NC(C)(C)C(=O)OC(C)C (single isomer, unassigned) [Example 1A] ?
Reply text: 85.74

Inquiry: Similarly, CC(C)COC(=O)C(C)(C)NP(=O)(CO[C@H](C)Cn1cnc2c(N)ncnc21)O[C@@H](C)C(=O)OC(C)C (stereo partly drawn) ?
Reply text: 85.48
